These data points were gathered from patent US20210292423A1.

Target: T1, human CD123 (IL3RA) on cells (human, UniProt P26951 19-378)
T1 construct: also called CD123 transfected HEK293; THP-1
T1 sequence (P26951 19-378): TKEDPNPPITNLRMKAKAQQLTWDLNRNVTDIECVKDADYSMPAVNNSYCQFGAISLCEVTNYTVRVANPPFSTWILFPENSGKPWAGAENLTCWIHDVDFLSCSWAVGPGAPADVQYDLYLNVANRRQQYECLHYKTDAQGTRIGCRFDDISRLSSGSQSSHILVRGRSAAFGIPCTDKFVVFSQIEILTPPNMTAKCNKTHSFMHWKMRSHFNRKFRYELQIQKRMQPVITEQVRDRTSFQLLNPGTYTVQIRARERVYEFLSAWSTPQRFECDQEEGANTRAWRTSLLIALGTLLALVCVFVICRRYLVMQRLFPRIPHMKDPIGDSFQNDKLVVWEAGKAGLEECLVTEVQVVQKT
Assay: flow cytometry, CD123 transfected HEK293, hybridoma supernatant
Known log10 of EC50 of a selection of binders
Would you kindly interpret these values as log10 of EC50 expressed in ng/mL?

{"columns": ["BINDER", "log10 of EC50"],
 "data": [
  ["2F8-D6 anti-CD123 rat IgG (hybridoma supernatant) (antibody, V domains shown, rat IgG; also called BFX - 2F8) VH: QVQLKESGPGLVQPSQTLSLTCTVSGFSLTSYGVSWVRQPPGKGLEWIATISSAGSTYYDLVLKSRLSITRDTSKSQVFLKVHSLQTEDTAIYLCARDAPVFNYGSYNAMDSWGQGTSVTVSS VL: DIQMTQSPSFLSATVGDRVTINCKASQNINKYLNWYQQKLGEAPKRLIYNTNSLQTGIPSRFSGSGSGTDYTLTISSLQPEDVATYFCLQHKSGLTFGSGTKLEIK", 0.53],
  ["5A5-B4 anti-CD123 rat IgG (hybridoma supernatant) (antibody, V domains shown, rat IgG; also called BFX - 5A5) VH: QIQIVQSGSDVTSTCNGCGTCYFSGFSLSTTGICVSWIRQPSGKGQEWLADFCWDDGKGYNPSLKNRLSISKDTSNNQVFLKITSVDTADTATYYCARRRVYYGIYFDYWGQGVMVTVSS VL: DIVMTQSPALAVSPGERVSISCRASNSVSTRMHWYQQKPGQQPKLLIYGASNLESGVPARFSGSGSGTDFTLTIDPVEADDIATYFCQQSWNDPLTFGSGTKLEIK", 1.00],
  ["9D7-C8 anti-CD123 rat IgG (hybridoma supernatant) (antibody, V domains shown, rat IgG; also called BFX - 9D7) VH: EVKLQESGPSLVQSSQTLSLTCTVSGFSLTSYHIHWVRQTPGKGLEWMGVMWSDGDTSYNSALKSRLSISRDTSQSQVFLKMNSLQTEDTATYYCARGYYSSYLYLWFAYWGQGTLVTVSS VL: DIVMTQSPSSLAVSEGETVTINCKSSQSFLSSGDGKNYVAWYQYKPGQSPKLLIYWASTRQSGVPDRFIGSGSGTDFTLTISTVQAEDLAIYYCQQYYDTPLTFGSGTKLEIK", -0.05],
  ["6B10-E4 anti-CD123 rat IgG (hybridoma supernatant) (antibody, V domains shown, rat IgG; also called BFX - 6B10) VH: EVQLVESGGGLVQPGRSLKLSCAASGFTFSHYNMAWVRQAPKKGLEWVATITYDDHSTYYRDSVKGRFTISRDTAKSTLYLQMDSLRSEDTATYYCARLVNYAFAYWGQGTLVTVSS VL: NIVMTQSPKSMSISVGDRVTMNCKASQTVGNNIAWYQQKPGLSPQLLIDYASNRYTGVPNRFTGGGYGTDFILTINSVQAEDAAFYYCQRMYNSPTFGGGTKLELK", 0.70]
]}

Read the next record carefully.
Give log10 of EC50 for the following binder: 8B11-B7 anti-CD123 rat IgG (hybridoma supernatant) (antibody, V domains shown, rat IgG; also called BFX - 8B11) VH: QVQLQESGPTLVNPGDSVKMSCKASGYTFTDHIIHWVKQSHGKSLEWIGYINPYSGGANYNGKFKSKATLTIDKSSSTAYMEFSRLTSGDSAIYYCALNYGSYYAMDAWGQGTSVTVSS VL: DIQMTQSPASLSASLGETVTIECRTSKDIYSNLAWFQQEPGNSPQLLIYDASNLADGVPSRFSGSGSGTQYSLQINNLQSEDVASYFCHQYNNYPYTFGTGTKLELK
-0.40
